# target_or_system: thromboxane synthetase (Homo sapiens, UniProt P24557)
# Sequence (P24557 1-533): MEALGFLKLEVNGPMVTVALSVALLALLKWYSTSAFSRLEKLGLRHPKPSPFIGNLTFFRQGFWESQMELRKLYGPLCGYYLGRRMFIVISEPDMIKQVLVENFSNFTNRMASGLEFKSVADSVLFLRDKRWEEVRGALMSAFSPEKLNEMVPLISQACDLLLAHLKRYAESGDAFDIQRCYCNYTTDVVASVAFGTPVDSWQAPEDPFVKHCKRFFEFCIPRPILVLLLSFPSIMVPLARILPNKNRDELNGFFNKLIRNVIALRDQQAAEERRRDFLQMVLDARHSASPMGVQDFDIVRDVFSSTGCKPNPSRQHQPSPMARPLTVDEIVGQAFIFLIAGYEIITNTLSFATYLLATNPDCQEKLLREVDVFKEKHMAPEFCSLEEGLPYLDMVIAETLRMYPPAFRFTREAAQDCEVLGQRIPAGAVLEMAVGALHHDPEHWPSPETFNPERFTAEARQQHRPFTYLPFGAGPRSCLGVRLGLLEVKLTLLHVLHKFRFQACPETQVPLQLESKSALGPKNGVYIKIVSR
property: IC50

Which value of IC50 has been reported for O=C(O)c1ccc(C2CCCc3cncn32)cc1 (stereo not shown) in the records? ~0.9 µM
